- assay overview: protein stability index of a GFP-peptide fusion (GPS, HEK-293T) (PSI 1-6); higher = more stable;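 also: 24-mer peptide tiles fused after GFP, lentivirally expressed, FACS-sorted into six equal bins by GFP/DsRed ratio, decoded by Illumina sequencing, PSI is the read-weighted mean bin number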
- experimental conditions: treatment: DMSO; c terminus: a fixed tail appended
Give measured protein stability index for each item. Keep answers brief.
Reply with just the number.

Any idea what protein stability index was measured for FLESQGIELNPPEKMALDPYTELR [EFHC1] ?
3.79

Any idea what protein stability index was measured for SLLDELLEVDHIRTIYHMFIALLI [SOAT1] ?
2.01

Any idea what protein stability index was measured for SELTSLCQSVLEDFNLCLFYLPSS [SMG5] ?
2.65

Any idea what protein stability index was measured for WYTKSFGHLCAAEVVKIRDSFSNQ [DLC1] ?
2.56

Any idea what protein stability index was measured for WVKGSVPPPLDQYVKFDAVSGDYY [CLPTM1] ?
2.79

Any idea what protein stability index was measured for NWPARQRGTHAVVGVATARAPLHS [SPSB4] ?
3.52

Any idea what protein stability index was measured for TFPASVLAPVPTHSTVSELSRSPV [DUSP5] ?
3.92

Any idea what protein stability index was measured for SSADDASAWSNIQEAPLQDDSCLN [FAN1] ?
5.26

Any idea what protein stability index was measured for DVELLQDLGDIVARSESVLLHMPQ [TRIM43] ?
3.18

Any idea what protein stability index was measured for PQKASPNGSISSAGNSSRNSSQSS [BTBD10] ?
5.04

Any idea what protein stability index was measured for EDEDPEEMPKSSDFLIHPPERSDL [PCDHGC5] ?
5.41

Any idea what protein stability index was measured for PPPPPPSRGGPPPPPPPPHNSGPP [WASL] ?
5.28

Any idea what protein stability index was measured for YTSGTTGIPKGVMLSHDNITWIAG [ACSBG2] ?
2.37

Any idea what protein stability index was measured for DRHGVYGLQRNLLVENIIDIYKQE [TRIM63] ?
3.2

Any idea what protein stability index was measured for SPPLHANTSLHVFVLDENDNAPAV [PCDHGC5] ?
3.94

Any idea what protein stability index was measured for RDSYGGPPRREPLPSRRDVYLSPR [RBMX] ?
3.69

Any idea what protein stability index was measured for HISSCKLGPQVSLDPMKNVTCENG [LOXL2] ?
4.15

Any idea what protein stability index was measured for QYALELLTVYAWERGSMKTHFNTA [OAS1] ?
3

Any idea what protein stability index was measured for AALHGLEETKKLANKYLVEDVLLL [KLHL14] ?
2.42

Any idea what protein stability index was measured for LDLSSSSQMSPLSLYGENSNSLSS [ATF6] ?
4.01

Any idea what protein stability index was measured for VAACAQTVVSLAAAGQPTPPTSPE [CEBPD] ?
5

Any idea what protein stability index was measured for VLSSEQEFQMFPKSRLSSVSVTYC [ETS2] ?
2.21

Any idea what protein stability index was measured for FSVLEGEKNNHRAKDLRAPPEQGK [SOAT1] ?
5.08

Any idea what protein stability index was measured for EEFAAGPAQSGILSDREVVNLFLH [BTBD1] ?
3.16

Any idea what protein stability index was measured for APVPEPPKEEQQQALEQFAAAAAH [EPB41L3] ?
5.54

Any idea what protein stability index was measured for HMNRLQSQRAMLLQGTESLNRATQ [VTI1B] ?
4.12

Any idea what protein stability index was measured for SSVTAAVSGLLVGYELGIISGALL [SLC2A12] ?
2.8

Any idea what protein stability index was measured for TLVGNVAQDLGLKMTDLLSRRLQL [PCDHGC5] ?
2.58

Any idea what protein stability index was measured for ATAFSKLKPESSQQPGQDALAVKA [ZBED1] ?
4.8

Any idea what protein stability index was measured for PSDKVGRADAHLGSSSVALPKEAS [TOR1AIP2] ?
5.23

Any idea what protein stability index was measured for QAEIENKRRQLEDERRQLQHLKSK [PALM] ?
5.02

Any idea what protein stability index was measured for NRKVSQRRVDFCKDPSAIGKKQVP [CASP6] ?
4.04

Any idea what protein stability index was measured for EHYRVQTQQTGTVRFDGYVIDGAT [FEM1B] ?
3.64

Any idea what protein stability index was measured for PDVIPLPHIYGARIKGVEVFCPLD [FAM189A2] ?
2.55

Any idea what protein stability index was measured for TELRRSGSSRSPGSKARAEGRGPV [PLEKHN1] ?
4.84

Any idea what protein stability index was measured for SESGSLGNSSGSDVTSLSSQLPDT [ISL2] ?
5.43

Any idea what protein stability index was measured for EPCQLPSESPGSLSEVLAQPQGAL [DNAAF3] ?
5.16

Any idea what protein stability index was measured for LEPKANLQAALQVLELHHSKLDTT [VPS39] ?
4.2

Any idea what protein stability index was measured for PGGRPEVIYNYVQRPFIRMSWEKE [BTBD10] ?
3.06

Any idea what protein stability index was measured for TFGAAACSIGFAVRYLNAYTGIVL [POP5] ?
3.18

Any idea what protein stability index was measured for EPEKLYAMPDPAGPDGHLPAVATL [ESRRA] ?
4.65

Any idea what protein stability index was measured for YIGSIMKGGAVAADGRIEPGDMLL [DVL3] ?
2.34

Any idea what protein stability index was measured for AALAVNTSILSRLPPEALTAPSGG [RNF208] ?
3.44

Any idea what protein stability index was measured for DLKLRKFVFSTEERTQLRLESLED [TRIB1] ?
3.74

Any idea what protein stability index was measured for GYEVAAAQGPNKPGYLVGRNNANG [CPN1] ?
4.2

Any idea what protein stability index was measured for SGTFAPISDRYSPELRQLVLSLLS [NEK8] ?
2.12

Any idea what protein stability index was measured for MAKSVKYTVNFLEAKEGDLHRIEI [CARM1] ?
2.55

Any idea what protein stability index was measured for ITPWTPSPSEKNSSFTWSVPSSGY [SMTNL2] ?
2.72

Any idea what protein stability index was measured for FKKTAYELLDEKLLARGTMQPFNY [FEM1A] ?
2.37

Any idea what protein stability index was measured for SRGSRRRRRQRSEKKKAHYRQSSF [KCNA4] ?
4.6

Any idea what protein stability index was measured for SSSRGSSHCDSPSPQEDGQIMFDV [BNIP3L] ?
4.81

Any idea what protein stability index was measured for SPMSAATLGGLNPSPSEVITPWTP [SMTNL2] ?
4.44

Any idea what protein stability index was measured for YIRAPPRSKIYLRFLDYEMQNSNE [NETO1] ?
2.28

Any idea what protein stability index was measured for EKRLQEIEELEREAERKIIEENIT [SRPK2] ?
5.03

Any idea what protein stability index was measured for ILRKLPQQREKLSLIRKHAQTFIA [CCND2] ?
2.3
